For each of the compounds below, state its clear zone after thermal shock.
test system: Desulfovibrio desulfuricans KCTC 5786; assay: Antibacterial activity test after thermal shock (paper disk clear zone); format: cell-based; conditions: 0.1% condition, after thermal shock (180° C., 1 hr)
Unit mm implied. Number only.

Request: Provide clear zone after thermal shock, tested on Desulfovibrio desulfuricans KCTC 5786, for N#CC(Br)(Br)C(N)=O [2,2-dibromo-2-cyanoacetamide] .
Result: 18.5

Request: Answer with clear zone after thermal shock of O=[N+]([O-])C(Br)(CO)CO [2-bromo-2-nitropropan-1,3-diol] measured for Desulfovibrio desulfuricans KCTC 5786.
Result: 25

Request: State recorded clear zone after thermal shock with Desulfovibrio desulfuricans KCTC 5786, entry O=C(CBr)OCc1ccccc1 [Benzyl-2-bromoacetate, benzyl-2-bromoacetate] , no comment.
Result: 36

Request: System Desulfovibrio desulfuricans KCTC 5786. Read-out clear zone after thermal shock. Item Oc1cc(Cl)ccc1Oc1ccc(Cl)cc1Cl [Irgasan, irgasan] . Report value.
Result: 13

Request: Report its clear zone after thermal shock with Desulfovibrio desulfuricans KCTC 5786 as the test system: O=c1[nH]sc2ccccc12 [1,2-benzisothiazol-3(2H)-one]
Result: 14.5
